assay: Clearance in human hepatocytes assessed per million cells at 1 uM after 5 to 90 mins by LC-MS/MS analysis; assay type: ADME, cell-based, Hepatocyte; details: read-out: CLH
readout_label: hepatocyte CLint at 1 µM

Check out these entries, answers already filled in.
compound=C[C@H](CCCCC(=O)NO)Nc1c(Nc2ccc3cc(C(F)(F)F)[nH]c3c2)c(=O)c1=O readout_label="hepatocyte CLint at 1 µM" result_value="10 µL/min/1e6 cells"
compound="Cc1[nH]c2ccccc2c1CCNCc1ccc(/C=C/C(=O)NO)cc1 [PANOBINOSTAT]" readout_label="hepatocyte CLint at 1 µM" result_value="8.5 µL/min/1e6 cells"
compound=O=C(CCCCCNc1c(Nc2ccccc2)c(=O)c1=O)NO readout_label="hepatocyte CLint at 1 µM" result_value="< 4.8 µL/min/1e6 cells"
compound=C[C@H](Nc1c(NCCCCCC(=O)NO)c(=O)c1=O)c1ccccc1 readout_label="hepatocyte CLint at 1 µM" result_value="< 5 µL/min/1e6 cells"

Next item in the queue.
hepatocyte CLint at 1 µM recorded for this compound, Cn1cc(CNCC2CCN(c3ncc(C(=O)NO)cn3)CC2)c2ccccc21 [QUISINOSTAT] , is 9.8 µL/min/1e6 cells

====

Item-by-item account of pKi
biological target: Histone deacetylase 1 (Homo sapiens, UniProt Q13547); experiment: Inhibition of human recombinant HDAC1 using fluorogenic HDAC substrate after 15 mins by fluorimetrc method
Sequence (Q13547 whole entry): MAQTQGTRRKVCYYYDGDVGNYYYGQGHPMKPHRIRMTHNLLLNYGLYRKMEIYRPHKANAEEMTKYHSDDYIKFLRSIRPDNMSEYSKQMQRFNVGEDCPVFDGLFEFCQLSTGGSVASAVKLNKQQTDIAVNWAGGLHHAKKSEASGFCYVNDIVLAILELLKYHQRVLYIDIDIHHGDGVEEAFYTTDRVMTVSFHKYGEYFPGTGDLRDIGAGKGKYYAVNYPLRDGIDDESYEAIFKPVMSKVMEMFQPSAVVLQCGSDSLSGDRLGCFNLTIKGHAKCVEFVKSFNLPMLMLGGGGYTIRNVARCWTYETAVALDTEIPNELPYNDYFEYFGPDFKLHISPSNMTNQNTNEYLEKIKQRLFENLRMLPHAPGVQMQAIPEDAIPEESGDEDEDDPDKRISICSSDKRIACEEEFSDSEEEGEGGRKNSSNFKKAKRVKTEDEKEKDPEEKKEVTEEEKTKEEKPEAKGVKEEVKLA
Give only the number. pKi is defined as minus log10 of concentration in molar units.

Check out these entries, answers already filled in.
compound=CC(C)(CCCCC(=O)NO)Nc1c(Nc2ccc(C(F)(F)F)cc2)c(=O)c1=O result_value=9.00
compound=COc1ccc(Nc2c(NCCCCCC(=O)NO)c(=O)c2=O)cc1 result_value=9.47

Next item in the queue.
// pKi (Histone deacetylase 1 (Homo sapiens, UniProt Q13547)) for CC(Nc1c(NCCCCCC(=O)NO)c(=O)c1=O)C12CC3CC(CC(C3)C1)C2 (stereo not drawn) = 7.32

====

biological target: Histone deacetylase 11 (Homo sapiens); assay: Inhibition of human recombinant HDAC11 using fluorogenic HDAC substrate class 2a after 30 mins by fluorimetrc method
Sequence (Q96DB2 whole entry): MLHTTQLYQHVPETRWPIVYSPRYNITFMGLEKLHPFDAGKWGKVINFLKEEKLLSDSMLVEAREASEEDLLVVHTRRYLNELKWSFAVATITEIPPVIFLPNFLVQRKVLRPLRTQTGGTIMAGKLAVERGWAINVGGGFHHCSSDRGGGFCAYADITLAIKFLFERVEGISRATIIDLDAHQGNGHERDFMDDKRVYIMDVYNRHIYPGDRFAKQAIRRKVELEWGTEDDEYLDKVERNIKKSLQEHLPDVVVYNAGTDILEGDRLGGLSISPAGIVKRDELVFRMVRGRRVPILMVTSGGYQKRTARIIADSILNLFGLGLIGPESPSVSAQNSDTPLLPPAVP
Item-by-item account of Ki
Give the number; µM is assumed, so skip it.

compound=CC(C)(CCCCC(=O)NO)Nc1c(Nc2ccc(C(F)(F)F)cc2)c(=O)c1=O target_entity="Histone deacetylase 11 (Homo sapiens)" result_value=0.021

Ki recorded for this compound, CC(Nc1c(NCCCCCC(=O)NO)c(=O)c1=O)C12CC3CC(CC(C3)C1)C2 (stereo not drawn) , is 0.038

Ki recorded for this compound, COc1ccc(Nc2c(NCCCCCC(=O)NO)c(=O)c2=O)cc1 , is 0.14

====

experiment: Solubility in pH 7.4 phosphate buffer solution at 100 uM after 24 hrs by HPLC method; assay type: physicochemical; details: buffer, pH 7.4, 24 h, 100 µM
readout_label: solubility

compound=Cn1cc(CNCC2CCN(c3ncc(C(=O)NO)cn3)CC2)c2ccccc21 result_value="> 97 µM"

Next item in the queue.
solubility recorded for this compound, O=C(CCCCC(Cc1ccccc1)Nc1c(Nc2ccc(C(F)(F)F)cc2)c(=O)c1=O)NO (racemic) , is < 1 µM

====

biological target: Histone deacetylase 9 (Homo sapiens, UniProt Q9UKV0); experiment: Inhibition of human recombinant HDAC9 using fluorogenic HDAC substrate class 2a after 30 mins by fluorimetrc method
Sequence (Q9UKV0 whole entry): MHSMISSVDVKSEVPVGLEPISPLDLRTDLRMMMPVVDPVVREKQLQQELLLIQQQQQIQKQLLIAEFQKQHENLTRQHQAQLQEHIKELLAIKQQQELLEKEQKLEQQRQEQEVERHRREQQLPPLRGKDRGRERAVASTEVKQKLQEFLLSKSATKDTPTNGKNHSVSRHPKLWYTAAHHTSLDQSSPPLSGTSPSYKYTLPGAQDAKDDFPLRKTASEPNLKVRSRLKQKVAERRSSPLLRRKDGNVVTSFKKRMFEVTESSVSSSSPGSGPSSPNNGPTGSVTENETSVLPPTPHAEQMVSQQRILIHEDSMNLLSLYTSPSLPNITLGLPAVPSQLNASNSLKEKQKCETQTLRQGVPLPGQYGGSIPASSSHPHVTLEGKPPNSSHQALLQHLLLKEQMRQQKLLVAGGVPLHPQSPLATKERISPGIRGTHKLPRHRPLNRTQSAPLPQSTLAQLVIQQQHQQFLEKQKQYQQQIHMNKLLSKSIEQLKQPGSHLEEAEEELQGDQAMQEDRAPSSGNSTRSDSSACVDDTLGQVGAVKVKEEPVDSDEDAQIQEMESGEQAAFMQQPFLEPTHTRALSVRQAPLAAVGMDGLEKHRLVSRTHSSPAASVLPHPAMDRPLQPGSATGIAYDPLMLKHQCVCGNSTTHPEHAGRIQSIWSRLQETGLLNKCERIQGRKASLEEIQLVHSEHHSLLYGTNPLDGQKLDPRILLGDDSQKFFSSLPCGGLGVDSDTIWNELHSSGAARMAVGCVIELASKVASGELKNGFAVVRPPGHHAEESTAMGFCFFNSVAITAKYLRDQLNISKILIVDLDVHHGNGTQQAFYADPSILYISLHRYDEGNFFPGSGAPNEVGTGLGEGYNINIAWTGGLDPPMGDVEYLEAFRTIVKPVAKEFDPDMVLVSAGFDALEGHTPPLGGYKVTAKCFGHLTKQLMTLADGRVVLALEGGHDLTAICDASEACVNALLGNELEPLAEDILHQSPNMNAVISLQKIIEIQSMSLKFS
Item-by-item account of Ki

Check out these entries, answers already filled in.
compound=CC(C)(CCCCC(=O)NO)Nc1c(Nc2ccc(C(F)(F)F)cc2)c(=O)c1=O result_value="> 10 µM"
compound=COc1ccc(Nc2c(NCCCCCC(=O)NO)c(=O)c2=O)cc1 result_value="> 10 µM"

Ki recorded for this compound, CC(Nc1c(NCCCCCC(=O)NO)c(=O)c1=O)C12CC3CC(CC(C3)C1)C2 (centres undefined) , is > 10 µM

Ki recorded for this compound, Cn1cc(CNCC2CCN(c3ncc(C(=O)NO)cn3)CC2)c2ccccc21 , is 0.0053 µM
